Biological target: T1, human Ror2 (human, UniProt Q01974 34-403, limits assumed)
T1 construct: also called hROR2; receptor tyrosine kinase-like orphan receptor 2
T1 sequence (Q01974 34-403 limits assumed): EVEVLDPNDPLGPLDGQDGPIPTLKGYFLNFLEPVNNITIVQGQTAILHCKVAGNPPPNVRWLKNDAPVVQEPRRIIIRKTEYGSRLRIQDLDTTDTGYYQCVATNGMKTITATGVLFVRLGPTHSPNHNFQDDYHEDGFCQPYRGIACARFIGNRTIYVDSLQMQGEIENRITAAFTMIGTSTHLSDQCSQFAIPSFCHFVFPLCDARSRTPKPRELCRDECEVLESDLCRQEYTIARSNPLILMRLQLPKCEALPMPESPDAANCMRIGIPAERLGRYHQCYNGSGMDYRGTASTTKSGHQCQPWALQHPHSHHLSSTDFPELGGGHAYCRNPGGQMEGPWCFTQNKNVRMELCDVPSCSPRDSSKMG
Test: ELISA, human Ror2; ratio of signal at pH 6.0 to pH 7.4
Give ratio, pH 6.0/7.4 for every item shown.
One number for each entry.

[
  {
    "BINDER": "HC-T033C (antibody, V domains shown) VH: EVQLQQSGPELVKPGASVKISCKTSGYTFTEYCMHWMKQSHRKSLEWIGGINTNNGGTGYNQKFKGKATLTVDKSSSTAYMELRSLTSEDSAVYFCARGSLYSYGNSYFDYWGQGTLVTVSS VL: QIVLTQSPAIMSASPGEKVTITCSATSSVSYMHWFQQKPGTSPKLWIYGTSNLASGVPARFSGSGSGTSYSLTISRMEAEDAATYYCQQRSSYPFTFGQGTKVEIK",
    "ratio, pH 6.0/7.4": 2.7
  },
  {
    "BINDER": "HC-N052L (antibody, V domains shown) VH: EVQLQQSGPELVKPGASVKISCKTSGYTFTEYTMHWMKQSHRKSLEWIGGILTNNGGTGYNQKFKGKATLTVDKSSSTAYMELRSLTSEDSAVYFCARGSLYSYGNSYFDYWGQGTLVTVSS VL: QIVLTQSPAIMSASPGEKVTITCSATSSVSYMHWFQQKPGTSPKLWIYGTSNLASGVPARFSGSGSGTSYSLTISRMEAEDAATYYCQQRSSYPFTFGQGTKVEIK",
    "ratio, pH 6.0/7.4": 2.1
  }
]

INPUT: Returns the measured ratio, pH 6.0/7.4 for the input binder. Input: HC-M034E (antibody, V domains shown) VH: EVQLQQSGPELVKPGASVKISCKTSGYTFTEYTEHWMKQSHRKSLEWIGGINTNNGGTGYNQKFKGKATLTVDKSSSTAYMELRSLTSEDSAVYFCARGSLYSYGNSYFDYWGQGTLVTVSS VL: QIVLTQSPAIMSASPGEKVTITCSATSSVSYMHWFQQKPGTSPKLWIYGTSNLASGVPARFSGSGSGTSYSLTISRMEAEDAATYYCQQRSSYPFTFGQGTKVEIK
OUTPUT: 6.3
